Reported growth inhibition is given for each of the following compounds.
assayName: NCI Yeast Anticancer Drug Screen. Data for the wt1 strain (AID 149);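 also: 0% = growth of vehicle-treated wt1 cultures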
conditionDescription: S. cerevisiae wt1 strain (SPY 50644) growth inhibition; at 100.0 µM; hits give high values
About 79,000 compounds went through this panel and 15% of them were active in at least one assay; those are over-represented in the sample as a whole.
The reply should contain only the number, in %.

Below, each entry is followed by its recorded growth inhibition result.
O=[N+]([O-])O.[NH-]C1CCCCC1[NH-].[NH-]C1CCCCC1[NH-].[NH-]C1CCCCC1[NH-].[OH-].[OH-].[OH-].[Pt+4].[Pt+4].[Pt+4] (stereo unspecified) | -3
COC(=O)C(F)C(Br)C(=O)OC (stereo unspecified) | 99
c1c(N2CCOCC2)ssc1=[N+]1CCOCC1 | -1
COc1cccc2c1C(=O)c1c(O)c3c(c(O)c1C2=O)C[C@@](O)(/C(C)=N\O)C[C@@H]3OC1CC(N)C(O)C(C)O1 (stereo partly specified) | 29
O=S(=O)(O)c1ccc(Cl)cc1.[Cd] | 73

Now turn to the next compound.
Exercise: Reported growth inhibition, compound O=c1oc2ccccc2c(O)c1C(c1ccc2ccccc2c1)c1c(O)c2ccccc2oc1=O : ____
Solution: 98
